- Tested on: SNB-19 CNS
- procedure_text: NCI tumour cell line growth inhibition, 48 h
experimental_endpoint: TGI

# get_value(readout= TGI, system= SNB-19 CNS) for "O=C(c1ccccc1)c1ccc(O)c2ncccc12" > 100 µM

Record "CC(C)C[C@H]1C(=O)N2CCC[C@H]2[C@]2(O)O[C@](NC(=O)[C@@H]3C=C4c5cccc6[nH]c(Br)c(c56)C[C@H]4N(C)C3)(C(C)C)C(=O)N12" : what is its TGI with SNB-19 CNS? > 100 µM

Form field - read-out: TGI; system: SNB-19 CNS; submitted item: "C=C(C[C@@H](O)[C@H](C)NC(=O)OCc1ccccc1)C(=O)OC(C)(C)C" > 100 µM

Which TGI is reported with SNB-19 CNS for this entry: "CC[C@H]1C=CCC[C@@]2(C[C@@H]3CC[C@H]4[C@@H](C(=O)OCCCCCCCCCCCCCCCC(=O)N(CCCNC(C)=O)C[C@H](CCNC(C)=O)OC(C)=O)[C@@]5(CCC[C@@H](C)O5)NC(=[N+]34)N2)O1" ? 3.07 µM

====

- Tested on: A549 NSCLC
- procedure_text: NCI tumour cell line growth inhibition, 48 h
Assign TGI to each entry below.

Given the compound "COc1cc(OC)c2nc(C)c3c(c2c1)OCC3" , what is its reported TGI? > 100 µM

# get_value(readout='TGI', item= "CSC(=NC#N)S/C=C/C(=O)c1cccc2ccccc12" ) > 100 µM

Using the record for "C/C(=C(/C)c1cc[n+](C)cc1)c1cc[n+](C)cc1" , report its TGI. > 75 µM

Can you share its TGI? I mean this compound: O=C(/N=C1/OC(CN2CCOCC2)CN1C(=O)Nc1ccccc1)Nc1ccccc1 (stereo not given) > 100 µM

Item COc1ccc(C2N3CCCCC3[C@@H]3c4[nH]c5ccccc5c4CCN23)c(OC)c1 (stereo not given in full) has what recorded TGI? > 100 µM

Entry COC(=O)C1=CO[C@@H](OC2OC(CO)C(O)C(O)C2O)[C@@H]2[C@H](C)[C@@H](O)[C@@H](O)[C@]12O (stereo not given in full) : reported TGI = ? > 100 µM

# input compound: CC(=O)[O][Hg][CH2]C1(C)COC(C)([CH2][Hg][O]C(C)=O)CO1 (stereo not given) ; wanted: its TGI 38.4 µM

Which measured TGI value corresponds to "Oc1ccc2ccccc2c1NCn1nc(CCCCCCCCc2nn(CNc3c(O)ccc4ccccc34)c(=S)o2)oc1=S" ? > 100 µM

Please report the recorded TGI for CC1=C/C(O)CC(=O)Cc2nc(co2)C(=O)N2CCC=C2C(=O)OC(C(C)C)C(C)/C=C\C(=O)NC/C=C\1 (stereo not given) . > 100 µM

Would you mind telling me what TGI value was observed for "Brc1ccc(N=Nc2ccc3ccccc3n2)cc1" ? > 100 µM

====

- Test system: SK-MEL-28 melanoma
- procedure_text: NCI tumour cell line growth inhibition, 48 h; in the data active = GI50 below about 0.43 µM; inactive = the rest
Output constraint: value belongs to y for active, n for inactive

Outcome logged for "Clc1ccc(N/N=C(\c2ccccc2)c2ccccn2)nc1" in this assay: y

Test call, this compound: "C=C1[C@@H](O)C[C@H]2C(C)(C)C[C@H](Cl)C[C@]2(C)[C@H]1C[C@H](O)[C@H]1CC(=O)NC1=O" y

Field: outcome | Entry: "NC(=NCCO)c1ccc(N2CCCN(c3ccc(C(N)=NCCO)cc3)CC2)cc1" n

Given "O=C(NCCNC(=O)c1ccc(F)cc1)Nc1ccc(-n2cc(-c3ccncc3)c(-c3ccc(Cl)c(O)c3)n2)cc1" , state the outcome it received in this test. n

Answer briefly: the call reported for "CCOC(=O)Nc1ccc(C(=O)/C=C/c2ccccc2)cc1" in this assay. n
